// read-out Ki, gathered for UniProt P31424 from published studies

Recorded results for 8 compounds are shown here.
COc1ccc(C(=O)N2Cc3ccc(F)cc3C2)cc1C#Cc1ccccn1    6 nM
O=S(=O)(c1ccc(F)c(F)c1)c1cnc2ccccc2c1-c1ccc(Cl)c(Cl)c1    < 200 nM
O=S(=O)(c1ccccc1)c1cnc2ccccc2c1N1CCCCCC1    200 to 500 nM
Cc1ccc(S(=O)(=O)c2cnc3ccc(F)cc3c2-c2ccc(F)cc2)cc1F    < 200 nM
CCN(CC)c1c(S(=O)(=O)c2ccc(Cl)cc2)cnc2ccc(F)cc12    > 500 nM
O=S(=O)(c1cccc(F)c1)c1sc2nc(F)ccc2c1-c1ccc(Cl)cc1    < 500 nM
O=S(=O)(c1cccc(Cl)c1)c1sc2ncccc2c1-c1ccc(F)cc1    < 500 nM
CCOc1ccc(C(=O)N2CCc3c(Cl)cccc3C2)cc1C#Cc1ccccn1    1 nM

Query: For UniProt P31424, provide Ki of CCc1ccc2ncc(S(=O)(=O)c3ccc(Cl)cc3)c(N3CCOCC3)c2c1 please.
Result: > 500 nM

Query: Provide the documented Ki with UniProt P31424 as the system for CS(=O)(=O)NC1CCN(c2c(S(=O)(=O)c3ccc(Cl)cc3)sc3ncccc23)CC1
Result: > 1500 nM

Query: So what Ki did COc1ccc(C(=O)N2Cc3cccc(Cl)c3C2)cc1C#Cc1ccccn1 get with UniProt P31424?
Result: 2 nM

* * *

Ki values for Metabotropic glutamate receptor 5 (Rattus norvegicus, UniProt P31424) compiled from several publications are listed below.

O=S(=O)(c1ccc(F)c(Cl)c1)c1cnc2cc(F)ccc2c1-c1cccc(F)c1    < 200 nM
COc1ccc(S(=O)(=O)c2cnc3ccc(F)cc3c2N2CCC(C)CC2)cc1    < 200 nM
COc1cccc(-c2c(S(=O)(=O)c3ccc(F)cc3)cnc3c(F)cccc23)c1    < 200 nM
COc1ccc(C(=O)N2Cc3cc(Cl)c(Cl)cc3C2)cc1C#Cc1ccccn1    17 nM
CC1CCN(c2c(S(=O)(=O)c3ccc(Cl)cc3)sc3ncc(O)cc23)CC1    < 500 nM
COc1ccc(C(=O)N2Cc3cnc(C)c(Cl)c3C2)cc1C#Cc1ccccn1    12 nM
N#Cc1cc(S(=O)(=O)c2cnc3cc(Cl)ccc3c2-c2cccc(F)c2)ccc1F    < 200 nM
Cc1ccc(S(=O)(=O)c2cnc3ccc(F)cc3c2-c2ccc(F)cc2)cc1C    < 200 nM

Query: What measured Ki goes with CCOc1ccc2ncc(S(=O)(=O)c3ccccc3)c(N3CCCC3)c2c1 ?
Result: > 500 nM

Query: Look up Ki for this compound: Cc1ccc2ncc(S(=O)(=O)c3ccc(C)c(Cl)c3)c(N3CCC(C)CC3)c2c1
Result: < 200 nM

Query: For COc1ccc(S(=O)(=O)c2cnc3ccc(C)cc3c2N2CCC(C)CC2)cc1 , what is its reported Ki?
Result: 200 to 500 nM

Query: Can you look up the measured Ki of Cc1ccc(S(=O)(=O)c2cnc3ccc(C)cc3c2N2CCCCCC2)cc1 for me?
Result: > 500 nM

Query: Which Ki is reported for this compound? CCN1CCN(c2c(S(=O)(=O)c3ccc(F)cc3)cnc3ccc(Cl)cc23)CC1
Result: > 500 nM

Query: Item under review: COc1ccnc2sc(S(=O)(=O)c3ccc(Cl)cc3)c(-c3ccc(Cl)cc3)c12 . Reported Ki?
Result: < 500 nM
